tested on: VchCAST RNA-guided transposition machinery (E. coli BL21(DE3) host, lacZ target); experiment: relative integration efficiency (T-LR orientation) vs wild-type transposon end (log2 (normalized fold change)); transposon end mutated: right end (5 bp flank + 75 bp right end); higher = more efficient transposition
Examples of sequences with documented relative integration efficiency (log2) follow.
outcomeMeasure: relative integration efficiency (log2)

INSERT INTO assay_data (constructsequence, assaysystem, endpointresult) VALUES
  ('ACATTTGTTGATACAACCATAAAATCATAATTACCCCCATAAATTGATAATTATCCCACCCAATTTAACTATAACGCTCTGATCATAGTCAGACCAACATTGCTACGACCCGTATTCGCACCGACAC', 'VchCAST RNA-guided transposition machinery (E. coli BL21(DE3) host, lacZ target)', 3.39),
  ('ACATTTGTTGATACAACCATAAAATGATAATTACACCCATAAATTGATAATTATCACACCCATAAATTGATATTGCCTCTTCATGTGAGCCCAGGCAGTAAGTTTACGACATTTTCAGCACCGACAC', 'VchCAST RNA-guided transposition machinery (E. coli BL21(DE3) host, lacZ target)', 2.37),
  ('ACATTTGTTCATACAACCATAAAATGATAATTACCACCCCTAAATTGATAATTATCACACCCATTTAACTATAACGCTCTGATCATAGTCAGACCAACATTGCTACGACCCGTATTCGCACCGACAC', 'VchCAST RNA-guided transposition machinery (E. coli BL21(DE3) host, lacZ target)', -2.87),
  ('ACATTTGTTGATACAACCATAAAAGGATCATTACCCCCATCAATTGATAATTATCACACCCAATTTAACTATAACGCTCTGATCATAGTCAGACCAACATTGCTACGACCCGTATTCGCACCGACAC', 'VchCAST RNA-guided transposition machinery (E. coli BL21(DE3) host, lacZ target)', -1.13),
  ('ACATTTGTTGATACCACCATAAAATGATAATTACACCCATACATTGATAATTATCACACCCAATTTAACTATAACGCTCTGATCATAGTCAGACCAACATTGCTACGACCCGTATTCGCACCGACAC', 'VchCAST RNA-guided transposition machinery (E. coli BL21(DE3) host, lacZ target)', 0.947),
  ('ACATTTGTTGATACAACCATAAAATGATAATTACACCCATAAATTGATAATTATCACACCGTTAAATTGATATTGCCTCTGATCATAGTCAGACCAACATTGCTACGACCCGTATTCGCACCGACAC', 'VchCAST RNA-guided transposition machinery (E. coli BL21(DE3) host, lacZ target)', 1.85),
  ('ACATTTGTTGATACAACCATAAAATGATAATTACTCTGATCATAGTCAGACCACACCCATAAATTGATAATTATCAGTGGGTATTTAACTATAACGACATTGCTACGACCCGTATTCGCACCGACAC', 'VchCAST RNA-guided transposition machinery (E. coli BL21(DE3) host, lacZ target)', 2.27),
  ('ACATTTGTTGATACAAACATAAAATGATAATTACACACATAAATTGATAATTATCACACACATAAATTGATATTGCCTCTGATCATAGTCAGACCAACATTGCTACGACCCGTATTCGCACCGACAC', 'VchCAST RNA-guided transposition machinery (E. coli BL21(DE3) host, lacZ target)', -0.182),
  ('ACATTTGTTGATACAACCATAAAATGATAATTACACCCATAAATTCTTAATTATCACACCCATAAATTGATATTGCCTCTGATCATAGTCAGACCAACATTGCTACGACCCGTATTCGCACCGACAC', 'VchCAST RNA-guided transposition machinery (E. coli BL21(DE3) host, lacZ target)', -1.33),
  ('ACATTTGTTGATACAACCATATATTGATATCTCCACCCATAAATTGATAATTATCACAACCATATATTGATATCTCCTCTGATCATAGTCAGACCAACATTGCTACGACCCGTATTCGCACCGACAC', 'VchCAST RNA-guided transposition machinery (E. coli BL21(DE3) host, lacZ target)', -0.00761),
  ('ACATTTGTCGATACAACCATAAAATGATAATTACACCCATAAATTCATCATTATCACCCCCAATTTAACTATAACGCTCTGATCATAGTCAGACCAACATTGCTACGACCCGTATTCGCACCGACAC', 'VchCAST RNA-guided transposition machinery (E. coli BL21(DE3) host, lacZ target)', 1.54),
  ('ACATTTGTTGATACAACCATATAATGATAATAACACCAATAAAATGATAATTATCACACCCAATTTAACTATAACGCTCTGATCATAGTCAGACCAACATTGCTACGACCCGTATTCGCACCGACAC', 'VchCAST RNA-guided transposition machinery (E. coli BL21(DE3) host, lacZ target)', 1.89),
  ('ACATTTGTTGATACAACCATAAAATGATAATTAATAATCACCCATAAATTGATAATTATCACACCCATAAATTGATATTGCCTCTGATCATAGTCAGACCAACATTGCTACGACCCGTATTCGCACC', 'VchCAST RNA-guided transposition machinery (E. coli BL21(DE3) host, lacZ target)', 0.894);
